For each entry below, report its TGI value.
Test system: SR leukemia
procedure.details: NCI tumour cell line growth inhibition, 48 h

Example results:
compound	TGI
CN(C)/C=C/c1ccncc1	> 100 µM
O=CC1C[C@@H](N2C(=O)O[C@@H](c3ccccc3)[C@H]2c2ccccc2)[C@@H]1COCc1ccccc1 (stereo partly drawn)	45.7 µM
COc1ccc(CCc2ccccc2CC(=O)O)cc1	> 100 µM
COC(=O)c1cc2oc(/C=C3\SC(=S)N(NC(C)=O)C3=O)cc2n1Cc1ccccc1	> 50 µM
COc1cc(C2(O)c3ccccc3C3=NCCN32)cc(OC)c1OC (stereo not drawn)	> 100 µM
CN1CCN(CCCCN2c3ccccc3Sc3ccc(N=[N+]=[N-])cc32)CC1	7.07 µM
OC(CNC1CCCC1)Cn1c2ccccc2c2ccccc21 (stereo not drawn)	> 100 µM
c1ccc2c3c([nH]c2c1)C1(CCCCC1)c1c([nH]c2ccccc12)C31CCCCC1	58.9 µM

Lab note: each compound below needs its TGI filled in.
1. N#C/C(=C\c1ccc(Br)cc1)c1nc(-c2cc3ccccc3oc2=O)cs1
2. Cc1cc(N)ccc1C=O
3. CCOC(=O)c1nc2ccccc2nc1Oc1ccc(OC)cc1

# output
1. > 50 µM
2. > 100 µM
3. > 100 µM

Lab note: each compound below needs its TGI filled in.
1. CC(=O)OC[C@@H](OC(C)=O)[C@@H](OC(C)=O)[C@H]1OC[C@@H]2C[C@H]([C@H]1OC(C)=O)N(Cc1ccccc1)O2
2. N=C(N)c1ccc(-c2ccc(-c3cccs3)s2)nc1

# output
1: > 100 µM; 2: 5.47 µM

Lab note: each compound below needs its TGI filled in.
1. C=CCCCCCC(O)C(O)C/C=C\C/C=C\CC (stereo not drawn)
2. CSC(=S)OC1C(CO[Si](C)(C)C(C)(C)C)OC2OC(C)(C)OC21 (stereo not drawn)
3. CC(=O)N1C2=CCCC2(C)c2ccccc21 (stereo not drawn)
4. CCCCCCCCCC1CC(=O)NCC(=O)NC(C(C)C)C(=O)NC(CC(C)C)C(=O)NC(C)C(=O)NC(C(C)C)C(=O)O1 (stereo not drawn)
5. CC(=O)OCC1OC(n2c(C)c(C(C)=O)c(-c3cccc4ccccc34)c(C#N)c2=S)C(OC(C)=O)C(OC(C)=O)C1OC(C)=O (stereo not drawn)
6. O=C(CN1CCOCC1)Nc1ccc2c(c1)C1Oc3ccccc3CC1CO2 (stereo not drawn)
7. CSC1C(=O)c2ccccc2/C(=N/Nc2nc3ccccc3s2)C1C (stereo not drawn)
8. C=CC(=O)Nc1cccc(C)c1Nc1ncc2cc(-c3c(Cl)c(OC)cc(OC)c3Cl)ccc2n1

# output
1. > 18.8 µM
2. 30.4 µM
3. > 100 µM
4. > 92.4 µM
5. > 100 µM
6. > 100 µM
7. 2.52 µM
8. > 100 µM

* * *

System: COLO 205 colon
procedure.details: NCI tumour cell line growth inhibition, 48 h
value.type: TGI

Example results:
compound	study.system	TGI
O=C1C[C@@H]2CCCC[C@@H]2C12SCCS2	COLO 205 colon	> 100 µM
CCN1C[C@]2(C)CC[C@H](OCc3ccccc3)C34C5C[C@@H]6CC[C@](O)(C(C[C@@H]32)C14)C5[C@H]6OCc1ccccc1 (stereo partly drawn)	COLO 205 colon	> 100 µM

// next entry
Lab note: `O=[N+]([O-])c1ccc(NC(=S)Nc2ccccn2)cc1` gave TGI of > 94.5 µM
